# Experimental system: SIRT6 (Homo sapiens, UniProt Q8N6T7)
# Sequence (Q8N6T7 whole entry): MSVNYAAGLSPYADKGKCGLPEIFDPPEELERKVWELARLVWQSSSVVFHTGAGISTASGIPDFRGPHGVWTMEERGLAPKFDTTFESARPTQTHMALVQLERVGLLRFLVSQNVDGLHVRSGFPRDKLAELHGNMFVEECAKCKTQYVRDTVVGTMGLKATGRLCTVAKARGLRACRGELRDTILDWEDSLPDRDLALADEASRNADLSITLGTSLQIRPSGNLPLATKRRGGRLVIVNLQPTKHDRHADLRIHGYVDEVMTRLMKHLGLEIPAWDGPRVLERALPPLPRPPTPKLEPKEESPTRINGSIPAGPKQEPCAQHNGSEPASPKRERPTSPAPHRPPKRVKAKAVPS
pIC50: −log10 of the molar value.
Observation type: pIC50

Exercise: Reported pIC50, compound Oc1ccc(/C=C/c2cc(O)cc(O)c2)cc1 : ____
Key: ~3.72

Origin of measurements: paper PMC5095863
